Exercise: for every item that follows, state its recorded clearance.
# run.description: Blood clearance in rat at 1 mg/kg, iv
# Format: ADME, organism-based
# Set-up: dose 1 mg/kg, route intravenous
# applied.conditions: whole blood
Numbers only, in mL/min/kg.

{"smiles.data": "O=C(O)c1cccc(C2=C(c3cc(Br)ccc3OCc3ccc(Cl)cc3)CCC2)c1", "outcome.measure": "clearance", "quantity.unit": "mL/min/kg", "value.observed": 33}
{"smiles.data": "O=C(O)c1cccc(C2=C(c3cc(Br)ccc3OCc3ccccc3)CCC2)c1", "outcome.measure": "clearance", "quantity.unit": "mL/min/kg", "value.observed": 52}
{"smiles.data": "O=C(O)c1cccc(C2=C(c3cc(Br)ccc3OCc3ccc(F)cc3)CCC2)c1", "outcome.measure": "clearance", "quantity.unit": "mL/min/kg", "value.observed": 46}

// lookup clearance for O=C(O)c1cccc(C2=C(c3cc(Br)ccc3OCc3ccc(F)cc3F)CCC2)c1
35

* * *

# assayed.target: Prostaglandin E2 receptor EP1 subtype (Homo sapiens)
# Sequence (P34995 whole entry): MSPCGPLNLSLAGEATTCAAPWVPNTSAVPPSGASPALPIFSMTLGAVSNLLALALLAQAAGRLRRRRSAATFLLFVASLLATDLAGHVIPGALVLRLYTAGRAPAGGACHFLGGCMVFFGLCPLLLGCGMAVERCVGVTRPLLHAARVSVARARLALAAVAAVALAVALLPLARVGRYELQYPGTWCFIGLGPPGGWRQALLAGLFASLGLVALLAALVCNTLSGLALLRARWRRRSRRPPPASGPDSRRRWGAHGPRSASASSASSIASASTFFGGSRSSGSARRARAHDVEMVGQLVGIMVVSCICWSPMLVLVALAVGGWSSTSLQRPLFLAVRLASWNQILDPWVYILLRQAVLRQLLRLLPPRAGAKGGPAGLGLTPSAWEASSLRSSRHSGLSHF
outcome.measure: pIC50
One number for each entry, as −log10 of the molar value.

Provide the reported pIC50 of each entry below, same order.
1. O=C(O)c1ccnc(C2=C(c3cc(Br)ccc3OCc3ccc(F)cc3)CCC2)c1
2. O=C(O)c1cccc(C2=C(c3cc(Cl)ccc3OCc3ccc(F)cc3F)CCC2)n1
3. O=C(O)c1cncc(C2=C(c3cc(C(F)(F)F)ccc3OCc3ccccc3)CCC2)c1
4. O=C(O)c1cncc(C2=C(c3cc(Cl)ccc3OCc3ccc(F)cc3F)CCC2)n1
5. O=C(O)c1cnnc(C2=C(c3cc(Cl)ccc3OCc3ccc(F)cc3F)CCC2)c1

1. 8.50
2. 8.60
3. 8.00
4. 8.70
5. 8.20

* * *

# run.description: Blood clearance in rat
# Format: ADME, organism-based
# applied.conditions: whole blood
outcome.measure: clearance (mL/min/kg)
One number for each entry, in mL/min/kg.

{"smiles.data": "O=C(O)c1cccc(C2=C(c3cc(Cl)ccc3OCc3ccc(F)cc3F)CCC2)n1", "clearance / mL/min/kg": 7}

// lookup clearance for O=C(O)c1cncc(C2=C(c3cc(C(F)(F)F)ccc3OCc3ccccc3)CCC2)c1
22

* * *

# run.description: Intrinsic clearance in rat liver microsomes
# Type: ADME, Microsome
Could you please mark Fulfilled for values of CLint scaled below 4 mL/min/g and Not fulfilled for values at or above it?

{"smiles.data": "O=C(O)c1ccnc(C2=C(c3cc(Br)ccc3OCc3ccc(F)cc3)CCC2)c1", "class.assignment": "Not fulfilled"}

# strict comparison: is reported CLint scaled < 4 mL/min/g? input = O=C(O)c1cncc(C2=C(c3cc(C(F)(F)F)ccc3OCc3ccccc3)CCC2)c1
Fulfilled

Please answer likewise for O=C(O)c1cccc(C2=C(c3cc(Cl)ccc3OCc3ccc(F)cc3F)CCC2)n1
Fulfilled

Values from ChEMBL document CHEMBL1146277
